// data source = patent US10138227B2

targetUnderTest: CFTR ΔF508 mutant (Homo sapiens, UniProt P13569, DEL508-508)
Construct: expressed in transfected cells; host or cells: CFBE41o- cells transduced with adenoviral vectors
Sequence (P13569 with tags, fused parts or gaps DEL508-508): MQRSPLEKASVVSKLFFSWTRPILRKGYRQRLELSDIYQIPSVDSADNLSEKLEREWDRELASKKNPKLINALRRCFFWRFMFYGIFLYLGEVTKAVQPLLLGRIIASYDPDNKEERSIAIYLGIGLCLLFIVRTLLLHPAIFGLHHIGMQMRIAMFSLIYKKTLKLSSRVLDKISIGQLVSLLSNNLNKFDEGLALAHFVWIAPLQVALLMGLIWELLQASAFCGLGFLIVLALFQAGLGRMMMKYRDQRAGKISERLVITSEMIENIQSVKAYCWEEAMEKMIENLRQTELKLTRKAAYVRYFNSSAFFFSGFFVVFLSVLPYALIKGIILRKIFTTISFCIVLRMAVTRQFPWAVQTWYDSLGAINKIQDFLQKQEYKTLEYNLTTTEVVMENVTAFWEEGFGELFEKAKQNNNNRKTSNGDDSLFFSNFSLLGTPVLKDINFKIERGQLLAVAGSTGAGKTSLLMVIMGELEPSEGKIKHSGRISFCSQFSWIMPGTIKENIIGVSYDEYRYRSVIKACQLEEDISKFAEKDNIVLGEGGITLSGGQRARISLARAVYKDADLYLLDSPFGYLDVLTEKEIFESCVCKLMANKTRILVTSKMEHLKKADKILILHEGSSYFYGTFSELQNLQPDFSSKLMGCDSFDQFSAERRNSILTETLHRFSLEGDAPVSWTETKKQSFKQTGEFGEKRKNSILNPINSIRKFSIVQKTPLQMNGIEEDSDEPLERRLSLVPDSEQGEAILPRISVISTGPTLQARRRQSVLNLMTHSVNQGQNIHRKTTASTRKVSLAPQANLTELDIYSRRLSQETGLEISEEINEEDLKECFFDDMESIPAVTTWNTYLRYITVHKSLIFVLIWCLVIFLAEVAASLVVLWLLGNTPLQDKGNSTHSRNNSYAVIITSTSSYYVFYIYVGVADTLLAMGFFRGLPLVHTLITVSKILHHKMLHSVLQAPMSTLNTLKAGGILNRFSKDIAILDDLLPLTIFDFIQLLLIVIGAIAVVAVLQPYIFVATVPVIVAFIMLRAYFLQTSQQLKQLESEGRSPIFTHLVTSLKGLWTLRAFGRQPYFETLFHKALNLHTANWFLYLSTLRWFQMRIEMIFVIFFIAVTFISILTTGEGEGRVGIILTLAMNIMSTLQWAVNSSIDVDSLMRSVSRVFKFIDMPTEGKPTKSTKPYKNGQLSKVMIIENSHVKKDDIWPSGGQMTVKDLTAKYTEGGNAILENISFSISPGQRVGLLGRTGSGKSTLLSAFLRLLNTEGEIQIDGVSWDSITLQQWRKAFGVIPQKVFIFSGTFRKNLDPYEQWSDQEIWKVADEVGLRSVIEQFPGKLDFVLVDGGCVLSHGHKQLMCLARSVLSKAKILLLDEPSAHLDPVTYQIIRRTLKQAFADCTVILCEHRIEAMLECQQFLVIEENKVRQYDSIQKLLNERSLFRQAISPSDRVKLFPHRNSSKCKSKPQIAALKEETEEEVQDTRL
methodSummary: YFP-halide influx assay for the CFTR-ΔF508 mutation
Format: cell-based
condition: CFBE41o- cells expressing CFTR ΔF508 and YFP reporter; forskolin 10.67 μM
Below, each of the compounds is paired with its reported % Activation value.
Answer shape: numeric part, then the unit.

compound: CC(C)(O)c1nnc(-c2ncc(S(=O)(=O)c3ccc(OC(F)(F)F)cc3)cc2N)o1 [Compound 43]
measurement: 110.8%
//
compound: Nc1cc(S(=O)(=O)c2ccc(OC(F)(F)F)cc2)cnc1-c1nc(CC2CCCO2)no1 (stereo not shown) [Compound 51]
measurement: 23.23%
//
compound: COCCOCc1nnc(-c2ncc(S(=O)(=O)c3ccc(OC(F)(F)F)cc3)cc2N)s1 [Compound 17]
measurement: 117.3%

(Q) # input compound: Nc1cc(S(=O)(=O)c2ccc(OC(F)(F)F)cc2)cnc1-c1nnc(COc2cccnc2)o1 [Compound 38] ; wanted: its % Activation
(A) 109.05%

###

targetUnderTest: CFTR ΔF508 mutant (Homo sapiens, UniProt P13569, DEL508-508)
methodSummary: YFP-halide influx assay for the CFTR-ΔF508 mutation
condition: CFBE41o- cells expressing CFTR ΔF508 and YFP reporter; forskolin 10.67 μM; (1-F/F0) vs concentration
pEC50: −log10 of the molar value.
Cut-off 8 on pEC50, inclusive. At or above means 1.0; below means 0.0.

Worked cases, answers included:
molecule: Nc1cc(S(=O)(=O)c2ccc(OC(F)(F)F)cc2)cnc1-c1nnc(C(O)C(F)(F)F)o1 (stereo not shown)
assignedLabel: 1.0

molecule: COCCOCc1nnc(-c2ncc(S(=O)(=O)c3ccc(OC(F)(F)F)cc3)cc2N)o1
assignedLabel: 0.0

molecule: COCCc1noc(-c2ncc(S(=O)(=O)c3ccc(OC(F)(F)F)cc3)cc2N)n1
assignedLabel: 0.0

molecule: CC(C)(C)c1noc(-c2ncc(S(=O)(=O)c3ccc(OC(F)(F)F)cc3)cc2N)n1
assignedLabel: 0.0

molecule: Nc1cc(S(=O)(=O)c2ccc(OC(F)(F)F)cc2)cnc1-c1nnc(COC2CCOC2)o1 (stereo not shown)
assignedLabel: 0.0

molecule: CO[C@H](C)c1nnc(-c2ncc(S(=O)(=O)c3ccc(OC(F)(F)F)cc3)cc2N)o1
assignedLabel: 0.0

molecule: Nc1cc(S(=O)(=O)c2ccc(OC(F)(F)F)cc2)cnc1-c1nc(CC2CC2)no1
assignedLabel: 0.0

molecule: COC(C)c1noc(-c2ncc(S(=O)(=O)c3ccc(OC(F)(F)F)cc3)cc2N)n1 (stereo not shown)
assignedLabel: 0.0

molecule: CC(O)(c1nnc(-c2ncc(S(=O)(=O)c3ccc(OC(F)(F)F)cc3)cc2N)o1)C(F)(F)F (stereo not shown)
assignedLabel: 1.0

molecule: CC(O)c1nnc(-c2ncc(S(=O)(=O)c3ccc(OC(F)(F)F)cc3)cc2N)o1 (stereo not shown)
assignedLabel: 1.0

(Q) Exam item: decide whether the reported pEC50 for Nc1cc(S(=O)(=O)c2ccc(OC(F)(F)F)cc2)cnc1-c1nnc(C[C@@H]2CCCO2)s1 is at least 8.
(A) 0.0

(Q) Exam item: decide whether the reported pEC50 for CO[C@@H](C)c1nnc(-c2ncc(S(=O)(=O)c3ccc(OC(F)(F)F)cc3)cc2N)o1 is at least 8.
(A) 0.0

(Q) Exam item: decide whether the reported pEC50 for Nc1cc(S(=O)(=O)c2ccc(OC(F)(F)F)cc2)cnc1-c1nnc(COc2cccnc2)s1 is at least 8.
(A) 0.0

(Q) Exam item: decide whether the reported pEC50 for Nc1cc(S(=O)(=O)c2ccc(OC(F)(F)F)cc2)c(Br)nc1-c1nnc(CO)o1 is at least 8.
(A) 1.0
